molecular target: Methionine sulfoxide reductase A (Bos taurus); test: concentration-response MsrA enzyme activation – biochemical, absorbance, bovine, late stage, dose response (AID 624497); conditions: purified MsrA enzyme activity, absorbance read-out
Activity calls are given as the source filed them. No rule for the calls is given here.
Give one outcome, nothing more. List: active, inactive

COMPOUND	QUALITATIVE LABEL
O=C(OCC(=O)c1c[nH]c2ccccc12)c1ccc([N+](=O)[O-])s1	inactive
CC1CCCC(NC(=O)COC(=O)c2ccc([N+](=O)[O-])s2)C1C (stereo not drawn)	inactive
O=[N+]([O-])c1ccc(C=Nc2cccc3ccccc23)s1	inactive

# lookup: test call for `O=C(COC(=O)c1ccc([N+](=O)[O-])s1)Nc1ccccc1`
inactive
